All figures here come from PubChem BioAssay (NCATS).

molecular target: Nuclear receptor subfamily 1 group I member 2 (Rattus norvegicus); assay: qHTS assay for small molecule activators of the rat pregnane X receptor (rPXR) signaling pathway (AID 651751); details: rPXR reporter cells, luciferase (One-Glo), 24 h; further: 0% is about no effect
Activity calls are given as the source filed them. How the calls were made is not given here.
Entries and their max response

inputSmiles	max response
N[C@@H](Cc1cc(I)c(Oc2cc(I)c(O)c(I)c2)c(I)c1)C(=O)O	4.68% (inactive)
O=c1c(O)c(-c2ccc(O)cc2O)oc2cc(O)cc(O)c12	-2.11% (inactive)
Nc1ccc(S(N)(=O)=O)cc1	5.05% (inactive)
CC1(C)NC(=O)N(c2ccc([N+](=O)[O-])c(C(F)(F)F)c2)C1=O	-9.05% (inactive)
